Provide the reported GI50 of each item.
test system: DU-145; assay: Cytotoxicity against human DU145 cells after 48 hrs by SRB assay; format: functional, cell-based; settings: Homo sapiens, DU-145, 48 h; read-out: GI50
Express the reported value numerically, then name its unit.

{"smiles_record": "C/C=C1\\NC(=O)[C@H](Cc2ccccc2Cl)NC(=O)[C@@H](C(C)C)NC(=O)[C@@H]([C@H](C)CC)NC(=O)[C@H](NC(=O)[C@H](NC(=O)[C@H](CCCN)NC(=O)[C@H]2CCCN2C(=O)[C@H](NC(=O)[C@@H](NC(=O)[C@@H](NC(=O)[C@H](NC(=O)CCCC(C)C)C(C)C)[C@@H](C)O)C(C)C)C(C)C)[C@H](C)CC)[C@H](C)OC(=O)[C@H](C(C)C)NC1=O", "result": "0.18 µM"}

Proceeding to the next compound to report its GI50.
Identify measured GI50 associated with C/C=C1\NC(=O)[C@H](Cc2ccccc2)NC(=O)[C@@H](C(C)C)NC(=O)[C@@H]([C@H](C)CC)NC(=O)[C@H](NC(=O)[C@H](NC(=O)[C@H](CCCN)NC(=O)[C@H]2CCCN2C(=O)[C@H](NC(=O)[C@@H](NC(=O)[C@@H](NC(=O)[C@H](NC(=O)CC[C@@H](C)CC)C(C)C)[C@@H](C)O)C(C)C)C(C)C)[C@H](C)CC)[C@H](C)OC(=O)[C@H](C(C)C)NC1=O
1.69 µM
